# TARGET_OF_ASSAY: pooled human IgG (human IgG1,2,3 and 4)
Reported Enzyme Activity Endpoint Assay: Fab'2 by item:
Please state the figure in ng/µL; there is no need to write the unit.

{"PROTEIN": "PRT-169 (protein) MANQEIRYSEVTPYHVTSVWTKGVTPPTDFTQGEDVFHAPYKANQGWYDITKTFNGKDDLLCGAATAGNMLHWWFDQNKDQIKRYLEEHPEKQKINFNGEQMFDVKEAIDTKNDQLDSKLFEYFKEKAFPYLSTKHLGVFPDHVIDMFINGYRLSLTNHGPTPVKEGSKDPRGGIFDAVFTRGDQSKLLTSRHDFKEKNLKEISDLIKKELTEGKALGLSHTYANVRINHVINLWGADFDSNGNLKAIYVTDSDSNASIGMKKYFVGVNSAGKVAISAKEIKEDNIGAQVLGLFTLSTGQDSWNQTN", "OBSERVABLE": "Enzyme Activity Endpoint Assay: Fab'2", "OUTPUT_UNIT": "ng/µL", "NUMERIC_READOUT": 658}
{"PROTEIN": "PRT-170 (protein) MANQEIRYSEVTPYHVTSVWTKGVTPPTDFIKGEDVFHAPYKAHQGWYDITKTFNGKDDLLCGAATAGNMLHWWFDQNKDQIKRYLEEHPEKQKINFNGEQMFDVKEAIDTKNSQLDSKLFEYFKEKAFPYLSTKHLGVFPDHVIDMFINGYRLSLTNHGPTPVKEGSKDPRGGIFDAVFTRGDQSKLLTSRHDFKEKNLKEISDLIKKELTEGKALGLSHTYANVRINHVINLWGADFDSNGNLKAIYVTDSDSNASIGMKKYFVGVNSAGKVAISAKEIKEDNIGAQVLGLFTLSTGQDSWNQTN", "OBSERVABLE": "Enzyme Activity Endpoint Assay: Fab'2", "OUTPUT_UNIT": "ng/µL", "NUMERIC_READOUT": 755}
{"PROTEIN": "PRT-185 (protein) MANQEIRYSEVTPYHVTSVWTKGVTPPANFRQGEDVFAAPYVANQGWYDITKTFNGKDDLLCGAATAGNMLHWWFDQNKDQIKRYLEEHPEKQKINFNGEQMFDVKELNTYESDHGYRDKSKLFEYFKEKAFPYLSTKHLGVFPDHVIDMFINGYRLSLTNHGPTPVKEGSKDPRGGIFDAVFTRGDQSKLLTSRHDFKEKNLKEISDLIKKELTEGKALGLSHTYANVRINHVINLWGADFDSNGNLKAIYVTDSDDKKLTIGDERIGMKKYFVGVNSAGKVAISAKEIKEDNIGAQVLGLFTLSTGQDSWNQTN", "OBSERVABLE": "Enzyme Activity Endpoint Assay: Fab'2", "OUTPUT_UNIT": "ng/µL", "NUMERIC_READOUT": 0}

Now turn to the next protein.
**Query** May I ask what Enzyme Activity Endpoint Assay: Fab'2 has been recorded for PRT-192 (protein) MANQEIRYSEVTPYHVTSVWTKGVTPPANFTQGEDVFHAPYVANQGWYDITKTFNGKDDLLCGAATAGNMLHWWFDQNKDQIKRYLEEHPEKQKINFNGEQMFDVKEAIDTKNHQLDSKLFEYFKEKAFPYLSTKHLGVFPDHVIDMFINGYRLSLTNHGPTPVKEGSKDPRGGIFDAVFTRGDQSKLLTSRHDFKEKNLKEISDLIKKELTEGKALGLSHTYANVRINHVINLWGADFDSNGNLKAIYVTDSDDKKLTISNASIGMKKYFVGVNSAGKVAISAKEIKEDNIGAQVLGLFTLSTGQDSWNQTN ?
**Result** 24
